assay.info: Toxicity in po dosed Rattus norvegicus (rat)
Type: organism-based
test.conditions: in vivo
recorded.endpoint: LD50

## Task Look at this compound and give its reported LD50. C#CCOc1cc(-n2nc(C(C)(C)C)sc2=O)c(Cl)cc1Cl
## Result > 4000 mg/kg

----------
assay.info: Aqueous solubility of the compound
Assay type: physicochemical
test.conditions: water
recorded.endpoint: solubility (µg/mL)
Give just the number in µg/mL; leave the unit off.

INSERT INTO results (molecule, endpoint_result) VALUES
  ('CC(C)Oc1cc(-n2nc(C(C)(C)C)oc2=O)c(Cl)cc1Cl', 0.7);

## Task Would you mind telling me what solubility value was observed for C#CCOc1cc(-n2nc(C(C)(C)C)sc2=O)c(Cl)cc1Cl ?
## Result 1.1

## Task GET /values?readout=solubility&item= C#CCOc1cc(-n2nc(C(C)(C)C)oc2=O)c(Cl)cc1Cl
## Result 0.37
